Items are presented alongside their recorded Kd.
Target: human CA-IX (Homo sapiens)
Construct: purchased Acro CA9-H82E3
Assay: Surface Plasmon Resonance (SPR) binding kinetics to recombinant human CA-IX (Biacore 8K, single-cycle kinetics, 1:1 binding model)
Conditions: Chelated Metal: Lu-175; SPR, 25° C., pH 7.4; read-out: CAIX KD
Description: G1. Surface Plasmon Resonance Assay Conditions for hCA-IX and hCA-XII Surface Plasmon Resonance (SPR) experiments were conducted on a Biacore 8K instrument (Cytiva, Marlborough, MA) to determine the binding kinetics of the compound to recombinant human CA-IX (Acro, CA9-H82E3) and CA-XII (Creative BioMart, CA12-261H) proteins. […]
Measurement label: Kd

{"Compound": "NS(=O)(=O)c1nnc(NC(=O)C23CC(c4cn(CCNC(=O)[C@@H]5CN(C(=O)CN6CCN(CC(=O)O)CCN(CC(=O)O)CCN(CC(=O)O)CC6)CCN5C(=O)C[C@H](NC(=O)C[C@H](NC(=O)c5ccc(C6(C(F)(F)F)CC6)cn5)C(=O)O)C(=O)O)nn4)(C2)C3)s1.[Lu+3] [Compound 109.25]", "Target system": "human CA-IX (Homo sapiens)", "Measurement label": "Kd", "Result": "< 1 nM"}
{"Compound": "CC(CCC(=O)N[C@@H](CC(=O)N[C@@H](CCC(=O)N1CCN(C(=O)CN2CCN(CC(=O)O)CCN(CC(=O)O)CCN(CC(=O)O)CC2)C[C@@H]1C(=O)NCCn1cc(C23CC(C(=O)Nc4nnc(S(N)(=O)=O)s4)(C2)C3)nn1)C(=O)O)C(=O)O)(c1ccc(O)cc1)c1ccc(O)cc1.[Lu+3] [Compound 107.13]", "Target system": "human CA-IX (Homo sapiens)", "Measurement label": "Kd", "Result": "1 to 2.5 nM"}
